Assay: chemical genetic growth profiling, strain panel (AID 1159580);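 note: tested at 20 µM; growth read once vehicle control cultures reached saturation at 30 °C; 1 = growth at the plate median or of vehicle wells; lower values mean less growth of the strain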
Conditions: S. cerevisiae deletion strains, growth OD, locus YKL068W
Hit rate of the full screen: of about 5,500 compounds, about 2,000 (36%) were called active. Roughly 18% stayed inconclusive and do not appear here. Cut-off read from the data, not from the text of the source: active = normalized growth mostly below about 0.91 (no sharp cut-off); inconclusive = no clear call, values can overlap the other calls; inactive = mostly above about 0.92. This is one part of the list.
Your reply should match one of these outcome classes. yes (1) for active, no (0) for inactive

Use these answered entries as a reference point.
Problem: For CC(=O)OC1CC2C(C)(C)CCCC2(C)C2CCC3(C)C(c4ccoc4)OC(=O)C4OC43C12C (stereo not given) , what call appears in the results of this test?
Solution: no (0)

Problem: What call does the record list for COc1cc2c3cc1Oc1cc(ccc1O)C[C@@H]1c4c(cc(OC)c(O)c4Oc4ccc(cc4)C[C@@H]3N(C)CC2)CC[N+]1(C)C ?
Solution: no (0)

Next:
Problem: Name the outcome recorded for COc1c(O)cccc1O in the assay.
Solution: no (0)

Problem: Tell me the assay call for CC(=O)O[C@H]1C[C@@H](O)C(C)(C)C2C[C@@H](OC(C)=O)[C@]3(C)C(CC[C@@]4(C)[C@H](c5ccoc5)OC(=O)C5OC543)[C@]21C (stereo not given in full) please.
Solution: no (0)

Problem: Check the results log: what was the call for O=C(O)c1nc2cc(Cl)c(Cl)cc2[nH]c1=O ?
Solution: no (0)

Problem: Fill in: this test's call for COc1c(O)cc2c(-c3ccccc3)cc(=O)oc2c1OC is ___
Solution: no (0)

Problem: Tell me the recorded outcome of this test for CC(=O)O[C@@H]1CC2C(C)(C)CCC(=O)[C@]2(C)C2CC[C@@]3(C)[C@H](c4ccoc4)OC(=O)C4OC43[C@@]21C (stereo not given in full) .
Solution: no (0)

Problem: Could you please tell me the result logged for CN(N=O)C(=O)N[C@@H]1[C@@H](O)[C@H](O)[C@@H](CO)O[C@@H]1O in this assay?
Solution: no (0)
